biological target: human GLP-1 receptor (human, UniProt P43220 24-463); experiment: cell-based or functional assay
Listed here are binders together with their documented GLP-1 receptor potency [EC50] pM 1% HSA.
Readout: GLP-1 receptor potency [EC50] pM 1% HSA (pM)

{"Binder": "{S27-[(28S)-(28,46-Dicarboxy-2,7,16,25,30-pentaoxo-9,12,18,21-tetraoxa-3,6,15,24,29-pentaazahexatetracontan-1-yl)]-[Gly8,36,Glu22,Cys27]-GLP-1(human)-(7-37)-pep … (ligand, Cys27 of the GLP-1 part (GLP-1(7-37) numbering; residue 21 of the chain) S-alkylated with (28S)-(28,46-Dicarboxy-2,7,16,25,30-pentaoxo-9,12,18,21-tetraoxa-3,6,15,24,29-pentaazahexatetracontan-1-yl) (substituent Chem. 7)) HGEGTFTSDVSSYLEEQAAKCFIAWLVKGGGGAQPGAQPGAQPGAQPGAQPGAQPGAQPGAQPGAQPGAQPGAQPGAQPGAQPGAQPGAQPGAQPGAQPGAQPGAQPGAQPGAQPGAQPGAQPGAQPGAQPGAQPGAQPGAQPGAQPGAQPGAQPGAQPAHPIPDSSPLLQFGGQVRQRYLYTDDAQQTEAHLEIREDGTVGGAADQSPESLLQLKALKPGVIQILGVKTSRFLCQRPDGALYGSLHFDPEACSFRELLLEDGYNVYQSEAHGLPLHLPGQKSPHRDPAPRGPARFLPLPGLPPALPEPPGILAPQPPDVGSSDPLSLVGGSQGRSPSYES", "Readout": "GLP-1 receptor potency [EC50] pM 1% HSA", "Measured": 203}
{"Binder": "S{Beta-27}-[2-[2-[[2-[2-[2-[[2-[2-[2-[[(4S)-4-carboxy-4-(17-carboxyheptadecanoyl-amino)butanoyl]amino]ethoxy]ethoxy]acetyl]amino]ethoxy]ethoxy]acetyl]amino]-eth … (ligand, Cys27 of the GLP-1 part (GLP-1(7-37) numbering; residue 21 of the chain) S-alkylated with substituent Chem. 7) HGEGTFTSDVSSYLEEQAARCFIAWLVKGGGGAQPGAQPGAQPGAQPAHPIPDSSPLLQFGGQVRQRYLYTDDAQQTEAHLEIREDGTVGGAADQSPESLLQLKALKPGVIQILGVKTSRFLCQRPDGALYGSLHFDPEACSFRELLLEDGYNVYQSEAHGLPLHLPGQKSPHRDPAPRGPARFLPLPGLPPALPEPPGILAPQPPDVGSSDPLSLVGGSQGRSPSYES", "Readout": "GLP-1 receptor potency [EC50] pM 1% HSA", "Measured": 104}
